Item-by-item account of INHIBITION
system: Plasmodium berghei; test: Screen against P. berghei liver stage (PbLuc), transformed with Luciferase, at 10uM; assay type: functional, HepG2; conditions: tested at 10 uM
Screen size: about 69,000 compounds; about 8,600 (12%) showed an effect of 50% or more. The entries come from a sample that favours strong results as a whole.
Hi! Could you send only the number? It should be in %, unit omitted.

// worked examples, INHIBITION included
1) CS(=O)(=O)c1snnc1C1CCN(Cc2ccncc2)CC1: 67.7
2) CCS(=O)(=O)CC(=O)NC(C)c1ccc(F)cc1F (centres undefined): 47.5

## Input Param readout = INHIBITION; param system = Plasmodium berghei; param query = CN(C)Cc1cncc2c1CCN(Cc1cnn(C)c1)C2 ; response: value
## Output 59.8

## Input Observed INHIBITION on Plasmodium berghei for CC(C)CNC(=O)CNC(=O)Nc1cccc(Cl)c1-n1cccn1 , please.
## Output -29.2

## Input Request: INHIBITION, test system Plasmodium berghei, entry COCCC(=O)N1CCC(c2nc(O)cc(-c3ccncc3)n2)C1 (centres undefined)
## Output -0.902

## Input Entry CCCn1nc(C)c(C(=O)N[C@@H]2CC[C@@H](N3CCCC3)[C@@H]2O)c1C , system Plasmodium berghei: what INHIBITION was measured?
## Output 1.65

## Input Recorded INHIBITION for CCN1CCN(C2CCN(Cc3noc(C4CC4)n3)CC2)C1=O with Plasmodium berghei, please?
## Output 35.9

## Input Lab note: need INHIBITION for CCCNC(=O)CN1CCN(c2nc(CC)ns2)CC1 on Plasmodium berghei, anyone have it?
## Output -23.2

## Input Tell me reported INHIBITION for Cc1ccc(C(=O)N2CCC(Oc3c(C)cccc3C)CC2)c(=O)[nH]1 , tested with Plasmodium berghei.
## Output -1.25

###

system: Plasmodium berghei; assay: Screen against P. berghei liver stage (PbLuc), transformed with Luciferase, at 10uM; format: functional, HepG2; settings: tested at 10 uM
The campaign covered roughly 69,000 compounds. About 8,600 (12%) showed an effect of 50% or more. The list comes from a sample in which strong results are over-represented; it also holds close analogues and randomly drawn compounds.
Entries annotated with measured INHIBITION
// note: answer is a bare numeric in %

These recorded examples may help you get a feel for the data.
1) CCCn1nnc(NCc2cc(Br)cc(Br)c2OC)n1: -24
2) Cc1ccc(CN2C(=O)CCC2C(=O)Nc2cnn(C)c2)o1 (centres undefined): 36.7
3) CCCNC(=O)c1cc2c(s1)CCN2c1ncccn1: 4.98
4) O=C(NCCN1CCCC1)c1cc2c(s1)CCN2c1ncccn1: 61.1
5) CCn1nnc(NCc2cc(Br)cc(Br)c2OC)n1: 61.1

## Input Give the measured INHIBITION of CC(C)NC(=O)c1cc2c(s1)CCN2c1ncccn1 .
## Output -21.3

## Input Param item = O=C(NCCn1ccnc1)c1ccn(-c2ccccc2F)n1 ; retrieve measured INHIBITION.
## Output 7.27

###

The reader will find reported INHIBITION values listed item by item below.
test system: Plasmodium berghei; experiment: Screen against P. berghei liver stage (PbLuc), transformed with Luciferase, at 10uM; format: functional, HepG2; conditions: tested at 10 uM
The whole screen tested about 69,000 compounds, of which about 8,600 (12%) showed an effect of 50% or more. The sample as a whole holds a higher share of strong results than the screen did.
// return numeric value only (unit: %, not printed)

Study these solved cases before continuing.
1. COc1ccc(COCC(=O)NC2CCc3nc(C)cn3C2)cc1 (configuration not stated): 21.7
2. Clc1ccc(C2(CNC3=NCCN3)CC2)cc1: 56.6
3. Cc1cc(C(=O)NC2CCc3nc(C)cn3C2)[nH]n1 (configuration not stated): -3.26

## Input Requested read-out: INHIBITION. Entry: Cc1cn2c(n1)CCC(NC(=O)CCCOCc1ccccc1)C2 (configuration not stated)
## Output 53.4

## Input What does the record list as INHIBITION for Cc1nnc(C(C)NCC2(c3ccc(Cl)cc3)CCOCC2)o1 (configuration not stated) ?
## Output 11.8
